Cited source for all entries: ChEMBL document CHEMBL5252603

- System: L929
- MEASUREMENT_DESCRIPTION: Cytotoxicity against mouse L929 cells
- Format: toxicity, cell-based
PARAMETER_MEASURED: CC50

Lab note: need CC50 with L929 for entry O=C(O)c1c(Nc2cccc(F)c2)[nH]c2cc(Cl)ccc2c1=O , please look it up.
> 100 µM

---

- MEASUREMENT_DESCRIPTION: Microsomal stability in mouse liver microsomes assessed as compound remaining after 30 mins in presence of NADPH
- Assay type: ADME, Microsome
- PROTOCOL_CONDITIONS: read-out: Stability
PARAMETER_MEASURED: remaining at 0.5 h (%)
// note: answer is a bare numeric in %

Entry under review: O=C(O)c1c(Nc2cccc(F)c2)[nH]c2cc(Cl)ccc2c1=O . Reported remaining at 0.5 h?
24
